system: biotinyl-Phe-oxazolone; assay: self-aminoacylation, catalytic enhancement (BFO) (fold over background); higher = more active; k-Seq, kA / k0A0; sequences stand for … in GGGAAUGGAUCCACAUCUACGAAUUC…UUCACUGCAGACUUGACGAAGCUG
Variants at the floor of the assay were thinned out.
recorded-endpoint: self-aminoacylation
The reply should be a number, written without any unit.

Take a look at these entries with their results.
chain-sequence | self-aminoacylation
AAGUUGGAUAAUAGUCGCAAG [Fam3.1 aminoacylation ribozyme variant] | 1.31
ACACACUUCAAGGAAUCGGUC [Fam1B.1 aminoacylation ribozyme variant] | 3.08

stdin: State its self-aminoacylation for this sequence: UUUCACCUAGGUCACCGGGUG [Fam2.2 aminoacylation ribozyme variant]
stdout: 26.7

stdin: Consider the sequence CCACACUUCAAACGAUCGGUC [Fam1B.1 aminoacylation ribozyme variant] and give its recorded self-aminoacylation.
stdout: 3.66

stdin: Look up and report measured self-aminoacylation for this entry: AUUAGCCUGGUCCUCGAGUGA [Fam2.1 aminoacylation ribozyme variant]
stdout: 36.7

stdin: Specify self-aminoacylation for CCGGACUUCAAGCAAUCGGUC [Fam1B.1 aminoacylation ribozyme variant] and stop.
stdout: 39.3

stdin: For the sequence AUCCACCUAGGUAAUCGGGUG [Fam2.2 aminoacylation ribozyme variant] , give its reported self-aminoacylation.
stdout: 27.6

stdin: Give a short answer stating reported self-aminoacylation for CCACACUUCCAGCAAUCGGUC [Fam1B.1 aminoacylation ribozyme variant] .
stdout: 1.03

stdin: Please give the documented self-aminoacylation of CUACAUCAAACAAUCUGUCUG [Fam1A.1 aminoacylation ribozyme variant]
stdout: 0.795

stdin: // Input: AUGUCCCUGGUCAUCGAGUGA [Fam2.1 aminoacylation ribozyme variant] . Output its self-aminoacylation only.
stdout: 246

stdin: For the sequence CCACGCUUCAAGCAAUCGGUG [Fam1B.1 aminoacylation ribozyme variant] , give its reported self-aminoacylation.
stdout: 5.52

stdin: Indicate the recorded self-aminoacylation value for this sequence: CUUACCCUGGUCAUCGAGUUA [Fam2.1 aminoacylation ribozyme variant]
stdout: 4.79

stdin: Please indicate self-aminoacylation recorded for CUACUGCAAACAAUGGGUCUG [Fam1A.1 aminoacylation ribozyme variant]
stdout: 1.5

###

test system: biotinyl-Val-oxazolone; experiment: self-aminoacylation, catalytic enhancement (BVO) (fold over background); higher = more active; k-Seq, kA / k0A0; sequences stand for … in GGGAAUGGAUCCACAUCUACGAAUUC…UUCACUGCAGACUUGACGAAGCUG
Variants at the floor of the assay were thinned out.
sequences and their reported self-aminoacylation
# respond with the number and nothing more

Some sequences with known self-aminoacylation results, for comparison:
chain-sequence | self-aminoacylation
AUUACCCUGUUCACCGAGUGA [Fam2.1 aminoacylation ribozyme variant] | 5
CUACUUGAAACAAUCGGUCUG [Fam1A.1 aminoacylation ribozyme variant] | 0.779
CUACUUCACGCAAUCGGUCUG [Fam1A.1 aminoacylation ribozyme variant] | 0.908

stdin: For the sequence AAUACCCUGGUCAUCCAGUGA [Fam2.1 aminoacylation ribozyme variant] , report self-aminoacylation.
stdout: 2.88

stdin: Item CUGCUUUAAACAAUCGGUCUG [Fam1A.1 aminoacylation ribozyme variant] : provide self-aminoacylation
stdout: 0.79

stdin: // fetch self-aminoacylation given entry AUUAGCCUGGUCAUCGAAUGA [Fam2.1 aminoacylation ribozyme variant]
stdout: 1.39

stdin: Answer with the recorded self-aminoacylation for the sequence listed here: ACUACCCUGGUCUUCGAGUGA [Fam2.1 aminoacylation ribozyme variant]
stdout: 2.72

stdin: Consider the sequence AUUCUCCUAGGUCAUCGGGUG [Fam2.2 aminoacylation ribozyme variant] and give its recorded self-aminoacylation.
stdout: 8.06

stdin: Entry AUUACCCUGGUCAUCUUGUGA [Fam2.1 aminoacylation ribozyme variant] needs its self-aminoacylation filled in; supply it.
stdout: 2.33
